Exercise: for every item that follows, state its recorded pIC50.
- Subject of test: VIM-1 (Pseudomonas aeruginosa (strain ATCC 15692 / DSM 22644 / CIP 104116 / JCM 14847 / LMG 12228 / 1C / PRS 101 / PAO1))
- Test summary: Enzyme activity: determination of IC50, fluorescence assay with CCF2-FA substrate (VIM-1)
- Type: biochemical
- Particulars: VIM-1 enzyme, CCF2-FA fluorescence assay; read-out: VIM-1 IC50
Answers are plain numbers, as −log10 of the molar value.

NCc1ccc2cc(-c3cccc(S(N)(=O)=O)c3-c3nn[nH]n3)ccc2n1; 7.90

Quick batch: pIC50 for everything below.
1. NS(=O)(=O)c1cccc(-c2ccc(CNCCc3cn[nH]c3)cc2)c1-c1nnn[nH]1
2. NS(=O)(=O)c1c(C(F)(F)F)ccc(-c2ccc(CO)cc2)c1-c1nn[nH]n1
3. CCCc1ccc(-c2cccc(S(N)(=O)=O)c2-c2nnn[nH]2)cn1

A.
1. 6.45
2. 8.87
3. 7.41

----------
- Subject of test: VIM-1 (Pseudomonas aeruginosa (strain ATCC 15692 / DSM 22644 / CIP 104116 / JCM 14847 / LMG 12228 / 1C / PRS 101 / PAO1))
- Test summary: Enzyme activity: determination of IC50, fluorescence assay with CCF2-FA substrate (VIM-1)
- Format: biochemical
- Particulars: VIM-1 enzyme, CCF2-FA substrate; read-out: VIM-1 IC50
Field: label. Allowed values: true (IC50 < 1 nM) or false (IC50 >= 1 nM).

Consider the following illustrative entries.
CC(C)[C@H](N)CN1CCC(c2ccc(-c3cccc(S(N)(=O)=O)c3-c3nnn[nH]3)cc2)CC1; false
NS(=O)(=O)c1c(CCCCCCO)ccc(CCCCCCO)c1-c1nn[nH]n1; false
Cn1c(-c2ccc(-c3ccc(C(F)(F)F)c(S(N)(=O)=O)c3-c3nnn[nH]3)cc2)cnc1N.O=C(O)C(F)(F)F; true
CC(C)(C)Cc1ccc(-c2cccc3sc(N)nc23)c(-c2nn[nH]n2)c1S(N)(=O)=O; false
NS(=O)(=O)c1c(C(F)(F)F)ccc(-c2ccc3c(c2)CNCC3)c1-c1nnn[nH]1; false

# next compound below
Q. Just wondering, is IC50 of NS(=O)(=O)c1c(C(F)(F)F)ccc([C@H]2CC[C@H](NC3CCCNCC3)CC2)c1-c1nnn[nH]1 (stereo partly drawn) below 1 nM?
A. false

----------
- Subject of test: VIM-1 (Pseudomonas aeruginosa (strain ATCC 15692 / DSM 22644 / CIP 104116 / JCM 14847 / LMG 12228 / 1C / PRS 101 / PAO1), UniProt A0A0F7KYQ8)
- Test summary: Enzyme activity: determination of IC50, fluorescence assay with CCF2-FA substrate (VIM-1)
- Format: biochemical
- Particulars: VIM-1 IC50, VIM-1 enzyme, CCF2-FA substrate
Field: label. Allowed values: satisfied (IC50 < 20 nM) or not satisfied (IC50 >= 20 nM).

NCC1(N)CCC(c2ccc(C(F)(F)F)c(S(N)(=O)=O)c2-c2nnn[nH]2)CC1 (stereo not shown) [Example 497]; not satisfied

Q. Just wondering, is IC50 of NC1CC(N[C@H]2CC[C@H](c3ccc(C(F)(F)F)c(S(N)(=O)=O)c3-c3nnn[nH]3)CC2)C1 (stereo partly shown) [Example 702] below 20 nM?
A. satisfied

Q. Now give it for NS(=O)(=O)c1c(C(F)(F)F)ccc(-c2ccc(C(O)C3CCNCC3)cc2)c1-c1nnn[nH]1 (stereo not shown) [Example 738] too.
A. satisfied

Q. Now give it for NCC[C@H]1CC[C@@H](c2ccc(C(F)(F)F)c(S(N)(=O)=O)c2-c2nnn[nH]2)CC1 [Example 498] too.
A. satisfied

Q. Now give it for NC1CCCc2ccc(-c3ccc(C(F)(F)F)c(S(N)(=O)=O)c3-c3nnn[nH]3)cc21 (stereo not shown) [Example 731] too.
A. not satisfied

Q. Now give it for NS(=O)(=O)c1c(C(F)(F)F)ccc(-c2ccc(OC3CNC3)cc2)c1-c1nnn[nH]1 [Example 719] too.
A. satisfied

Q. Now give it for NS(=O)(=O)c1c(C(F)(F)F)ccc([C@H]2CC[C@H](N[C@H]3CC[C@H]4CCN[C@H]4C3)CC2)c1-c1nnn[nH]1 [Example 679] too.
A. not satisfied

----------
- System: Serratia marcescens expressing IMP-1 (CL5741)
- Test summary: Antibiotic potentiation activity: synergistic concentration (MITC95) with imipenem, OD600 growth
- Type: cell-based
- Particulars: concentration giving 95% inhibition of bacterial growth
Exercise: for every item that follows, state its recorded Serratia marcescens expressing IMP-1 (CL5741) MITC95.

Some solved entries appear below for comparison.
CS(=O)(=O)Nc1cccc(-c2ccnc(S(N)(=O)=O)c2-c2nn[nH]n2)c1; 2.344 µM
NS(=O)(=O)c1cccc(-c2ccc3c(=O)nc[nH]c3c2)c1-c1nn[nH]n1; 18.75 µM
CN(C(=O)c1ccc(-c2cccc(S(N)(=O)=O)c2-c2nn[nH]n2)cc1)C1CCOCC1; 28.13 µM
NS(=O)(=O)c1cccc(C#Cc2cccnc2)c1-c1nn[nH]n1; 18.75 µM

Quick batch: Serratia marcescens expressing IMP-1 (CL5741) MITC95 for everything below.
1. NS(=O)(=O)c1nccc(-c2ccc(C3CCNCC3)cc2)c1-c1nnn[nH]1
2. CC(CO)Oc1ccc(-c2cccc(S(N)(=O)=O)c2-c2nn[nH]n2)cc1 (stereo not drawn)
3. COc1ccc(-c2cccc(S(N)(=O)=O)c2-c2nn[nH]n2)cn1
4. NS(=O)(=O)c1nccc(-c2ccc3c(c2)CNC3=O)c1-c1nnn[nH]1 [Example 192]
5. NS(=O)(=O)c1cccc(-c2cnn(Cc3ccccn3)c2)c1-c1nn[nH]n1
6. NS(=O)(=O)c1cccc(-c2ccccc2)c1-c1nn[nH]n1

A.
1. 1.563 µM
2. 50 µM
3. 18.75 µM
4. 50 µM
5. 14.06 µM
6. 6.25 µM

Quick batch: Serratia marcescens expressing IMP-1 (CL5741) MITC95 for everything below.
1. NS(=O)(=O)c1cccc(-c2ccc3ncccc3c2)c1-c1nn[nH]n1
2. NS(=O)(=O)c1nccc(-c2ccncc2)c1-c1nnn[nH]1
3. COc1ncc(-c2cccc(S(N)(=O)=O)c2-c2nn[nH]n2)cn1
4. Cc1cccc(Cc2cccc(S(N)(=O)=O)c2-c2nnn[nH]2)c1
5. CC(C)(C)Cc1cccc(S(N)(=O)=O)c1-c1nnn[nH]1
6. Cc1ccc(Oc2cccc(S(N)(=O)=O)c2-c2nn[nH]n2)cc1
7. NS(=O)(=O)c1nccc(-c2ccc3cn[nH]c3c2)c1-c1nn[nH]n1

A.
["18.75 µM", "75 µM", "50 µM", "12.5 µM", "18.75 µM", "37.5 µM", "50 µM"]

----------
- Subject of test: IMP-1 (Serratia marcescens)
- Sequence (P52699 whole entry, looked up): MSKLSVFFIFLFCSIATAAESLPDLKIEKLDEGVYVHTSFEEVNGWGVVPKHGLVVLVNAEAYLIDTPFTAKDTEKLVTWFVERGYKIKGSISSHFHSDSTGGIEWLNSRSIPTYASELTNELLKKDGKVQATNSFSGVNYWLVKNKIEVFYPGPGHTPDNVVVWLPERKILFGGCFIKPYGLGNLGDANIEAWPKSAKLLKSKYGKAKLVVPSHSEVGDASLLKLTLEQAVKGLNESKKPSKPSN
- Test summary: biochemical
- Assay type: biochemical
- Particulars: IMP-1 enzyme, CCF2-FA substrate; read-out: IMP-1 IC50
Exercise: for every item that follows, state its recorded IC50.
Numbers only, in nM.

Some solved entries appear below for comparison.
NS(=O)(=O)c1c(C(F)(F)F)ccc([C@H]2CC[C@H](NC3CC4CNCCN4C3)CC2)c1-c1nnn[nH]1 (stereo partly drawn); 31.7
Nc1ccc(-c2ccc(CCC3CCNCC3)c(S(N)(=O)=O)c2-c2nnn[nH]2)cn1; 268

Next, consider the following molecule.
Q. Look at this molecule and give its reported IC50. NS(=O)(=O)c1c(C(F)(F)F)ccc(-c2ccc(N3CCC(O)CC3)cc2)c1-c1nnn[nH]1
A. 0.456

----------
- Subject of test: VIM-1 (Pseudomonas aeruginosa (strain ATCC 15692 / DSM 22644 / CIP 104116 / JCM 14847 / LMG 12228 / 1C / PRS 101 / PAO1), UniProt A0A0F7KYQ8)
- Test summary: Enzyme activity: determination of IC50, fluorescence assay with CCF2-FA substrate (VIM-1)
- Assay type: biochemical
- Particulars: VIM-1 enzyme, CCF2-FA fluorescence assay; read-out: VIM-1 IC50
Exercise: for every item that follows, state its recorded IC50.
Give bare numbers, in µM.

NS(=O)(=O)c1cccc(-c2ccc3nc(C(=O)O)ccc3c2)c1-c1nn[nH]n1; 0.034
N#Cc1nc2c(-c3ccc(C(F)(F)F)c(S(N)(=O)=O)c3-c3nnn[nH]3)cccc2s1; 0.000216
NS(=O)(=O)c1cccc(-c2cc3cnccc3s2)c1-c1nnn[nH]1; 0.0278
Nc1nc2ccc(-c3cccc(S(N)(=O)=O)c3-c3nn[nH]n3)cc2[nH]1; 0.03

Quick batch: IC50 for everything below.
1. NCCc1ccc(-c2cccc(S(N)(=O)=O)c2-c2nnn[nH]2)cn1
2. NC1CCC(c2ccc(-c3ccc(C4CCNCC4)cc3)c(-c3nn[nH]n3)c2S(N)(=O)=O)CC1 (centres unmarked)
3. NCc1nc(-c2ccc(-c3cccc(S(N)(=O)=O)c3-c3nn[nH]n3)cc2)no1
4. NC[C@H]1CC[C@H](Cc2ccc(-c3ccc(C4CCNCC4)cc3)c(-c3nn[nH]n3)c2S(N)(=O)=O)CC1
5. Nc1ncc(-c2ccc(Br)c(S(N)(=O)=O)c2-c2nn[nH]n2)s1
6. Cc1ccc(-c2cc(-c3ccc4c(c3)CNC4=O)cc(S(N)(=O)=O)c2-c2nn[nH]n2)cc1
7. NS(=O)(=O)c1cccc(C(F)(F)F)c1-c1nnn[nH]1
8. NS(=O)(=O)c1cccc(-c2ccc(C3=CCNC3)cc2)c1-c1nn[nH]n1

A.
[0.0962, 0.112, 0.087, 0.000803, 0.0327, 0.0343, 8.44, 0.018]
